read-out: Cytochrome P450 (CYP2B6), CYP2B6 (gene 1555); assay: LTEA_HepaRG_CYP2B6: Life Technologies and Expression Analysis (LTEA) Assay for Cytochrome P450 (CYP2B6) using HepaRG (AID 2283481); settings: mRNA level, 48 h; actives raise or lower the signal
Calls of active or inactive are those of the source. Rule for the calls: active = hit-call score of the fitted dose curve at least 0.9, where 1 is the maximum; inactive = score below 0.9.
MEASUREMENT_LABEL: AC50

>>> measured("O=Cc1ccccc1C=O")
"23.3 µM (active)"
>>> measured("O=C1OC(c2ccc(O)cc2)(c2ccc(O)cc2)c2ccccc21")
"84.7 µM (active)"
>>> measured("C/C=C/C=C/C(=O)O")
"inactive"
>>> measured("S=c1[nH]c2ccccc2s1")
"inactive"
>>> measured("Cc1occc(=O)c1O")
"inactive"

stdin: Data request, read-out AC50, for CC(=O)OC1CC(C)OC(C)O1 (stereo unspecified)
stdout: inactive

stdin: Same question, OCC(O)CO this time
stdout: 22.6 µM (active)

stdin: Same question, O=C(Oc1ccccc1)c1cccc(C(=O)Oc2ccccc2)c1 this time
stdout: 15.9 µM (active)

stdin: Same question, O=C(NS(=O)(=O)/C=C/c1cccs1)c1ccc(F)cc1Br this time
stdout: inactive

* * *

Read-out: Tissue plasminogen activator (tPA), PLAT (gene 5327)
Assay: BSK_BE3C_tPA: BioMAP Diversity Plus: BE3C Assay for Tissue plasminogen activator (tPA) Biomarker Activity (AID 2283041);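 note: tPA level quantified by ELISA one day after compound addition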
Conditions: primary human bronchial epithelial cells; actives raise or lower the signal
Protocol: BSK_BE3C is a cell-based, multiplexed-readout assay that uses bronchial epithelial cell, a human lung primary cell, with measurements taken at 24 hours after chemical dosing in a 96-well plate.BSK_BE3C_tPA is an assay component measured in the BSK_BE3C assay. It measures tPA antibody related to regulation of gene expression using ELISA technology.Data from the assay component BSK_BE3C_tPA was analyzed into 1 assay endpoint. […]
Calls of active or inactive are those of the source. Rule for the calls: active = hit-call score of the fitted dose curve at least 0.9, where 1 is the maximum; inactive = score below 0.9.
Pick one: active, inactive

>>> group_label("O=C(O)c1cccnc1")
"inactive"
>>> group_label("CC(C)(O)c1ccc(CNC(=O)c2cccnc2Oc2ccc(F)cc2)cc1")
"inactive"
>>> group_label("c1ccc2occc2c1")
"inactive"

stdin: Which result was noted for this molecule in the test: O=C(Oc1ccccc1)c1cccc(C(=O)Oc2ccccc2)c1
stdout: inactive

stdin: Same question, CCCC[C@H]1CN(CC2CCOCC2)C(=O)OC12CCN(C1(C)CCN(C(=O)c3c(C)ncnc3C)CC1)CC2 this time
stdout: inactive

* * *

experiment: APR_HepG2_MitoticArrest_72hr: Apredica 72-hour HepG2 Assay for Mitotic Arrest (AID 2282918); details: high-content imaging, actives raise or lower the signal
The source made the active and inactive calls. The calls were made as follows: active = hit-call score of the fitted dose curve at least 0.9, where 1 is the maximum; inactive = score below 0.9.
Pick one: active, inactive

Example entries begin here.
>>> group_label("Cc1ccc(C(C)(C)C)c(O)c1")
"active"
>>> group_label("O=C(N[C@@H](c1ccccc1)[C@@H]1CCCCN1)c1cccc(C(F)(F)F)c1Cl")
"active"
>>> group_label("CCC(C)N(C)C(=O)c1cc2ccccc2c(-c2ccccc2Cl)n1 (centres undefined)")
"active"
>>> group_label("CC(C)NCC(O)c1ccc(O)c(O)c1 (centres undefined)")
"inactive"
>>> group_label("C/C=C/C=C/C(=O)O")
"active"
>>> group_label("CCCCc1nc2cccnc2n1Cc1ccc(-c2ccccc2-c2nnn[nH]2)cc1")
"active"
>>> group_label("CCCCCCCCCC[N+](C)(C)[O-]")
"active"
>>> group_label("Cc1cc(SC2=C(O)C[C@@](CCc3ccc(N)cc3)(C(C)C)OC2=O)c(C(C)(C)C)cc1CO")
"inactive"

stdin: Which result was noted for this molecule in the test: CC(C)(C)c1ccccc1
stdout: inactive

stdin: Same question, O=C1CCCCC1 this time
stdout: inactive
